# System: paternal Ube3a-YFP
# method: Paternal Ube3a-YFP unsilencing, fluorescence immunostaining and high-content imaging in primary cortical neurons (Ube3a^m+/pYFP)
# Type: cell-based, mouse
# measurement_parameters: maximum response of unsilencing paternal Ube3a-YFP; fluorescence intensity normalized to vehicle control; 72 h, estimated from Fig. 4
attribute_measured: Emax

1. CC[C@@]1(O)C(=O)OCc2c1cc1n(c2=O)Cc2cc3c(CN(C)C)c(O)ccc3nc2-1 :: 1.51 (± 0.11)
2. O=C1c2ccccc2-c2c1c1ccc([N+](=O)[O-])cc1c(=O)n2CC(O)C(O)C(O)CO (centres unmarked) :: 1.48 (± 0.08)
3. COc1cc2c3c(n(CCCn4ccnc4)c(=O)c2cc1OC)-c1cc2c(cc1C3=O)OCO2 :: 1.47 (± 0.10)
4. COc1cc2c3c(n(CCCN4CCOCC4)c(=O)c2cc1OC)-c1cc2c(cc1C3=O)OCO2 :: 1.78 (± 0.13)
5. COc1cc2c3c(n(C[C@@H](O)CO)c(=O)c2cc1OC)-c1cc2c(cc1C3=O)OCO2 :: 1.45 (± 0.12)

====

# Tested on: paternal Ube3a-YFP
# method: Paternal Ube3a-YFP unsilencing, fluorescence immunostaining and high-content imaging in primary cortical neurons (Ube3a^m+/pYFP)
# Type: cell-based, mouse
# measurement_parameters: Table S1, nine analogues; unsilencing of paternal UBE3A-YFP, 72 h; 'ambiguous' = limited effective dose range; read-out: EC50
EC50 listing for selected compounds.
attribute_measured: EC50 (nM)

1. COc1cc2c3c(n(C[C@H](O)CO)c(=O)c2cc1OC)-c1cc2c(cc1C3=O)OCO2 :: 121
2. COc1cc2c3c(n(CCCO)c(=O)c2cc1OC)-c1cc2c(cc1C3=O)OCO2 :: 634

====

# method: in vitro
# measurement_parameters: mouse
attribute_measured: CC50 at 72 h (nM)

1. COc1cc2c3c(n(CCCN4CCOCC4)c(=O)c2cc1OC)-c1cc2c(cc1C3=O)OCO2 :: 2010
2. CC[C@@]1(O)C(=O)OCc2c1cc1n(c2=O)Cc2cc3c(CN(C)C)c(O)ccc3nc2-1 :: 2300
